Test system: Target C
Assay Remarks: Splicing RT-qPCR panel, Target C canonical junction (CJ) mRNA
Assay type: cell-based, human
Condition Set: Homo sapiens, gene panel, CJ qPCR, protocol of Example 142; read-out: Target C IC50 (decrease in CJ mRNA levels)
pIC50: −log10 of the molar value.
For each record, write down the corresponding pIC50.

Per the record, `CN(c1ccc(-c2ccc(-c3cn[nH]c3)c(OC(F)F)n2)nn1)[C@@H]1C[C@H]2CC[C@@H](C1)N2` has pIC50 of 6.00 to 7.00

Entry `COc1nc(-c2ccc(NC3CCNCC3)nc2)ccc1-c1cnn(C)n1` , pIC50 reported as < 5.00

pIC50 recorded for this compound, `CN(c1ccc(-c2ccc(-c3cn[nH]c3)c(OC3CC3)n2)nn1)[C@@H]1C[C@H]2CC[C@@H](C1)N2` , is 6.00 to 7.00

Sure, the documented pIC50 for COc1cc(-c2ccc(N3CCC(NC(C)(C)C)C3)nn2)ncc1-n1cccn1 (stereo not shown) is 5.00 to 6.00

Memo: `COc1nc(-c2ccc(O[C@@H]3C[C@H]4CC[C@@H](C3)N4)nn2)ccc1-c1ccnc(C)c1` , reported pIC50: < 5.00

Sure, the documented pIC50 for `COc1nc(-c2ccc(N(C)C3CC(C)(C)NC(C)(C)C3)nn2)ccc1-n1cccn1` is 6.00 to 7.00

Query `COc1nc(-c2ccc(OC3CC(C)(C)NC(C)(C)C3)nc2)ccc1-c1cnn(C)c1` yields pIC50 of < 5.00

Looking up COc1nc(-c2ccc(OC3CC4CC(F)(F)C(C3)N4)nn2)ccc1-c1ccnc(C)c1 (stereo not shown) , I see its pIC50 listed as < 5.00

# compound `COc1nc(-c2ccc(N(C)C3CC(C)(C)NC(C)(C)C3)nc2)ccc1-c1cnn(C)c1` ; its pIC50 = 6.00 to 7.00

pIC50 reading for `COc1nc(-c2ccc(OC3CC(C)(C)NC(C)(C)C3)nn2)ccc1-c1cn[nH]c1` : 6.00 to 7.00

Per the records, this compound ( `COc1nc(-c2ccc(N(C)[C@@H]3C[C@H]4CC[C@@H](C3)N4)nc2)ccc1-c1cn[nH]c1` ) has pIC50 equal to 6.00 to 7.00

So for `COc1cc(-c2ccc(N(C)[C@@H]3C[C@H]4CC[C@@H](C3)N4)nn2)ncc1-c1cn[nH]c1` , the logged pIC50 turned out to be < 5.00

Entry under test: `COc1nc(-c2ccc(N(C)[C@@H]3C[C@H]4CC[C@@H](C3)N4)nn2)cnc1-c1cn[nH]c1` . Its pIC50 was 6.00 to 7.00

For record `CCOc1nc(-c2ccc(OC3CC(C)(C)NC(C)(C)C3)nn2)ccc1-c1cn[nH]c1` the listed pIC50 is 6.00 to 7.00

pIC50 measured on COc1nc(-c2ccc(OC3CC4CCC(C3)N4)nn2)ccc1-n1cccn1 (stereo not shown) = < 5.00

Reported pIC50 ( `CCOc1nc(-c2ccc(N(C)[C@@H]3C[C@H]4CC[C@@H](C3)N4)nn2)ccc1-c1cn[nH]c1` ) = > 7.00

The value of pIC50 measured for the compound `COc1nc(-c2ccc(NC3CCNCC3)nc2)ccc1-c1cnn(C)c1` turned out to be 5.00 to 6.00

Briefly, pIC50 measured for `CC1(C)CC(Oc2ccc(-c3ccc(-c4cn[nH]c4)c(OC4CC4)n3)nn2)CC(C)(C)N1` : 5.00 to 6.00

// recorded pIC50 for `COc1nc(-c2ccc(N(C)[C@@H]3C[C@H]4CC[C@@H](C3)N4)nn2)ccc1-c1cnnc(C)c1` : 5.00 to 6.00

Reported pIC50 ( `COc1nc(-c2ccc(OC3CC(C)(C)NC(C)(C)C3)nc2)ccc1-c1cnn(C)n1` ) = < 5.00

pIC50 measured on `COc1nc(-c2ccc(OC3CC(C)(C)NC(C)(C)C3)nc2)ccc1-c1cn[nH]c1` = 5.00 to 6.00

Record summary for `COc1nc(-c2ccc(N(C)C3CC(C)(C)NC(C)(C)C3)nc2)ccc1-c1cn[nH]c1` : reported pIC50 = 6.00 to 7.00

So for `COc1nc(-c2ccc(N[C@@H]3C[C@H]4CC[C@@H](C3)N4)nn2)ccc1-n1cccn1` , the logged pIC50 turned out to be 5.00 to 6.00

`COc1nc(-c2ccc(N(C)[C@H]3CCN[C@@H](C)C3)nn2)ccc1-n1cccn1` yielded pIC50 of 5.00 to 6.00

Lookup result for `COc1nc(-c2ccc(N(C)[C@@H]3C[C@H]4CC[C@@H](C3)N4)nn2)ccc1-c1cnc(C)cn1` ; measured pIC50: 5.00 to 6.00

The compound `CN(c1ccc(-c2ccc(-c3cn[nH]c3)cn2)nn1)[C@@H]1C[C@H]2CC[C@@H](C1)N2` showed pIC50 equal to 5.00 to 6.00

Value of measured pIC50 for the entry `COc1nc(-c2ccc(N[C@@H]3C[C@H]4CC[C@@H](C3)N4)nn2)ccc1-c1cnn(C)n1` : 5.00 to 6.00

// recorded pIC50 for `COc1nc(-c2cnc(N(C)[C@@H]3C[C@H]4CC[C@@H](C3)N4)cn2)ccc1-c1cn[nH]c1` : 5.00 to 6.00

Lab note: measured pIC50 of `COc1nc(-c2ccc(O[C@@H]3C[C@H]4CC[C@@H](C3)N4)nn2)ccc1-c1cn(C)nn1` was < 5.00

Note to self: pIC50 recorded for `COc1nc(-c2ccc(NC3CCNCC3)nn2)ccc1-c1cnn(C)n1` was < 5.00

The measured pIC50 associated with `CN(c1ccc(-c2ccc(-c3cn[nH]c3)c(Cl)n2)nn1)[C@@H]1C[C@H]2CC[C@@H](C1)N2` reads 6.00 to 7.00
